Molecular target: T1, cyno IL-33 N-His (cynomolgus monkey)
T1 chain: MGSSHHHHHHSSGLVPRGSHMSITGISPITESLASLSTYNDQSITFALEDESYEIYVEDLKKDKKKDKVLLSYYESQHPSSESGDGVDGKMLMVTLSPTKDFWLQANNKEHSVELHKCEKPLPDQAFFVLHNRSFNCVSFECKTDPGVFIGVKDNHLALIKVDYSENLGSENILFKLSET
Experiment: SPR Biacore T200, 37 C
The binders listed here are annotated with their kon.
parameter-measured: kon (M⁻¹ s⁻¹)

{"binder": "H4H9670P (antibody, V domains shown) VH: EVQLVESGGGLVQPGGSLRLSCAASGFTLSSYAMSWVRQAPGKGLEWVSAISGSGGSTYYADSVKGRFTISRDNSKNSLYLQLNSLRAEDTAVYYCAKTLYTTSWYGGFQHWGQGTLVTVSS VL: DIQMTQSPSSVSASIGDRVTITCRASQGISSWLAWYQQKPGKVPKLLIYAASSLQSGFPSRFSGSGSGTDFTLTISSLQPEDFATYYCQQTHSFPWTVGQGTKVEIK", "number": 380000}
{"binder": "H4H9667P (antibody, V domains shown) VH: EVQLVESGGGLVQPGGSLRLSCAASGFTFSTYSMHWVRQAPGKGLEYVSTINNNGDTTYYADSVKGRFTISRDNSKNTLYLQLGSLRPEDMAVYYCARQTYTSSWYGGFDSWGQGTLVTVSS VL: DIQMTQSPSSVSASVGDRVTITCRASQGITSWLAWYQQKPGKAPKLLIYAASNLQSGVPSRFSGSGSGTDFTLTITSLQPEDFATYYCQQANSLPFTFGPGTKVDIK", "number": 398000}
{"binder": "H4H9671P (antibody, V domains shown) VH: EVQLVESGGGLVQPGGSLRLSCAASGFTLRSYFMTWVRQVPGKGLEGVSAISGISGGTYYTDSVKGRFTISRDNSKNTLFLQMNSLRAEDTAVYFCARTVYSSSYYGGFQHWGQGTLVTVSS VL: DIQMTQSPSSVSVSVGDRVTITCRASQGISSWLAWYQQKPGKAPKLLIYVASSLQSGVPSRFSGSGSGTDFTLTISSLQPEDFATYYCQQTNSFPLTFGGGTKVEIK", "number": 890000}
